- assayNotes: Pharmacokinetic study in rats: plasma 2C-B after IV/PO 2C-B or PO 2C-B prodrugs
- experimentalParameters: male, Sprague-Dawley, rat, plasma, po, 10 mg/kg, T1/2, 2C-B dosed oral 10 mg/kg, male SD rats, analyte 2C-B in plasma, individual animals
recordedMetric: half-life (h)
Write the answer as a number in h, unit excluded.

Field half-life (entry COc1cc(CCN)c(OC)cc1Br [Example 2C-B, 4-bromo-2,5-dimethoxyphenethylamine] ) reads 1.65

* * *

- assayNotes: Pharmacokinetic study in rats: plasma 2C-B after IV/PO 2C-B or PO 2C-B prodrugs
- experimentalParameters: male, Sprague-Dawley, rat, plasma, po, 10 mg/kg, Cmax, 2C-B dosed oral 10 mg/kg, male SD rats, analyte 2C-B in plasma, mean
recordedMetric: Cmax

Field Cmax (entry "COc1cc(CCN)c(OC)cc1Br" ) reads 26.2 ng/mL

* * *

- assayNotes: Pharmacokinetic study in rats: plasma 2C-B after IV/PO 2C-B or PO 2C-B prodrugs
- experimentalParameters: male, Sprague-Dawley, rat, plasma, po, 5 mg/kg, T1/2, 2C-B dosed oral 5 mg/kg, male SD rats, analyte 2C-B in plasma, mean
recordedMetric: half-life

Field half-life (entry "COc1cc(CCN)c(OC)cc1Br" ) reads 7.98 h

* * *

- assayNotes: Pharmacokinetic study in rats: plasma 2C-B after IV/PO 2C-B or PO 2C-B prodrugs
- experimentalParameters: male, Sprague-Dawley, rat, plasma, po, 5 mg/kg, Tmax, 2C-B dosed oral 5 mg/kg, male SD rats, analyte 2C-B in plasma, individual animals
recordedMetric: Tmax (min)
Write the answer as a number in min, unit excluded.

Field Tmax (entry "COc1cc(CCN)c(OC)cc1Br" ) reads 30

* * *

- assayNotes: Pharmacokinetic study in rats: plasma 2C-B after IV/PO 2C-B or PO 2C-B prodrugs
- experimentalParameters: male, Sprague-Dawley, rat, plasma, po, 10 mg/kg, Tmax, 2C-B dosed oral 10 mg/kg, male SD rats, analyte 2C-B in plasma, individual animals
recordedMetric: Tmax
Quote the value and follow it with the unit of measurement.

Field Tmax (entry COc1cc(CCN)c(OC)cc1Br [Example 2C-B, 4-bromo-2,5-dimethoxyphenethylamine] ) reads 1 h

* * *

- assayNotes: Pharmacokinetic study in rats: plasma 2C-B after IV/PO 2C-B or PO 2C-B prodrugs
- experimentalParameters: male, Sprague-Dawley, rat, plasma, iv, 1 mg/kg, Cmax, 2C-B dosed IV 1 mg/kg, male SD rats, analyte 2C-B in plasma, mean of 3 animals
recordedMetric: Cmax (ng/mL)
Write the answer as a number in ng/mL, unit excluded.

Field Cmax (entry "COc1cc(CCN)c(OC)cc1Br" ) reads 75.3

* * *

- assayNotes: Pharmacokinetic study in rats: plasma 2C-B after IV/PO 2C-B or PO 2C-B prodrugs
- experimentalParameters: male, Sprague-Dawley, rat, plasma, po, 5 mg/kg, AUC0-last, 2C-B dosed oral 5 mg/kg, male SD rats, analyte 2C-B in plasma, mean
recordedMetric: AUC(0-t) (ng·h/mL)
Write the answer as a number in ng·h/mL, unit excluded.

Field AUC(0-t) (entry "COc1cc(CCN)c(OC)cc1Br" ) reads 110

* * *

- assayNotes: Pharmacokinetic study in rats: plasma 2C-B after IV/PO 2C-B or PO 2C-B prodrugs
- experimentalParameters: male, Sprague-Dawley, rat, plasma, po, 10 mg/kg, T1/2, 2C-B dosed oral 10 mg/kg, male SD rats, analyte 2C-B in plasma, mean
recordedMetric: half-life (h)
Write the answer as a number in h, unit excluded.

Field half-life (entry "COc1cc(CCN)c(OC)cc1Br" ) reads 1.94
